assay: viability of PTEN-null HCT116 cells – cell-based, HCT116 clonal line, CellTiter-Glo, pilot screen (AID 824); conditions: HCT116 PTEN-deleted viability, 60 h, at 10 µM, stronger effect = lower value;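 further: 0% = 20 µM Hyamine control and 100% = vehicle cell control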
Inconclusive results are not listed.
Threshold-based label: viability under 90% gives label 1, viability not under 90% gives label 0.

[[record]]
compound = "O=C(/C=N/O)Nc1ccccc1C(=O)O"
category = "label 0"

[[record]]
compound = "CCOC(=O)CN(C(=O)c1ccccc1)c1ccccc1C"
category = "label 0"

[[record]]
compound = "CC(C)c1nnc(NC(=O)c2cccs2)s1"
category = "label 1"

[[record]]
compound = "COc1ccc(CCn2c(N)c(S(=O)(=O)c3cccs3)c3nc4ccccc4nc32)cc1OC"
category = "label 1"

[[record]]
compound = "CCOCCOc1nc2c(c(=O)n(C)c(=O)n2C)n1Cc1ccc(C)cc1"
category = "label 1"

[[record]]
compound = "CC(=O)c1cccc(NC(=O)Nc2cc3sccc3n2C)c1"
category = "label 0"

[[record]]
compound = "CC(=O)Nc1ccc(S(=O)(=O)NCc2ccc3c(c2)cc(C)n3C)cc1"
category = "label 0"

[[record]]
compound = "Cc1ccc(C2CC(=O)NC(SCc3ccccc3)=C2C#N)o1 (stereo unspecified)"
category = "label 0"

[[record]]
compound = "CC(C)Cc1nnc(NS(=O)(=O)c2ccc(Cl)cc2)s1"
category = "label 0"


###

Reported growth inhibition by item:
experiment: S. cerevisiae growth inhibition in restrictive medium, OD615, pilot screen, restrictive growth control, yeast lifespan reduction project (AID 706); conditions: OD615, 48 h, at 10 µM, stronger effect = higher value;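 further: modified DeaD lifespan yeast strain shifted to restrictive glucose medium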
readout.kind: growth inhibition (%)

[[record]]
compound = "COc1ccc(C(=O)Oc2c(CN3CCOCC3)cc(Cl)c3cccnc23)cc1OC"
reported_value = -19.1

[[record]]
compound = "Cc1nnc(SCC(=O)Nc2ccc3c4c(cccc24)CC3)n1C"
reported_value = -5.08

[[record]]
compound = "Cn1nnnc1SCC(=O)Nc1ccccc1C(=O)NCc1ccccc1"
reported_value = 4.06

[[record]]
compound = "COc1ccccc1C1NC(=O)NC(C)=C1C(=O)Nc1cccc(C)c1C (stereo not given)"
reported_value = -10.3

[[record]]
compound = "COCCn1cc(C(=O)c2ccccc2OCC(=O)Nc2cc(C)on2)cc(C#N)c1=O"
reported_value = -14


###

Reported viability increase by item:
experiment: doxorubicin toxicity protection in MRP-1 cells – H69AR cells, CellTiter-Glo, duplicate, MRP-1 activator project, pilot screen (AID 807); conditions: H69AR viability with doxorubicin, CellTiter-Glo luminescence; at 10 µM; stronger effect = higher value;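 further: compound pretreatment 18-22 h then 72 h combined with doxorubicin; 0% = doxorubicin alone and 100% = vehicle without doxorubicin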
readout.kind: viability increase (%)

[[record]]
molecule = "CCCc1cc(C(=O)Nc2ccc(C(C)=O)cc2)no1"
readout_kind = "viability increase"
reported_value = -0.27

[[record]]
molecule = "COC(=O)c1ccc(-c2nc(-c3ccc(Br)o3)no2)cc1"
readout_kind = "viability increase"
reported_value = 3.93

[[record]]
molecule = "CCSC(C)CC1C/C(=N/O)c2c(CC)noc2C1 (configuration not stated)"
readout_kind = "viability increase"
reported_value = 5.22

[[record]]
molecule = "Cc1cccc(OCC(=O)Nc2ccc(N3CCCC3)cc2)c1C"
readout_kind = "viability increase"
reported_value = -3.79

[[record]]
molecule = "CSc1nnc(NC(=O)c2cc3ccccc3oc2=O)s1"
readout_kind = "viability increase"
reported_value = -2.29

[[record]]
molecule = "O=C(NCCN1CCN(c2ccccc2)CC1)c1ccc(NC(=O)C2CCCO2)cc1 (configuration not stated)"
readout_kind = "viability increase"
reported_value = -1.13

[[record]]
molecule = "CN(C)c1ccc(CN2CCCCCC2)cc1"
readout_kind = "viability increase"
reported_value = -2

[[record]]
molecule = "O=C(NCc1cccnc1)NC1(C(F)(F)F)Oc2ccc(Cl)cc2O1 (configuration not stated)"
readout_kind = "viability increase"
reported_value = -6.19

[[record]]
molecule = "O=C(Nc1c(C(=O)NCc2ccco2)cnn1-c1ccccc1)c1ccc(F)cc1"
readout_kind = "viability increase"
reported_value = -5.34

[[record]]
molecule = "Cc1cc(-c2nc3ncccc3o2)ccc1NC(=O)CC(C)C"
readout_kind = "viability increase"
reported_value = -0.17

[[record]]
molecule = "Fc1ccc(-c2nnc(-c3ccc(Cl)cc3Cl)o2)cc1"
readout_kind = "viability increase"
reported_value = -5.12

[[record]]
molecule = "COc1ccccc1C(=O)NCCc1nc2ccccc2n1C"
readout_kind = "viability increase"
reported_value = 0.02

[[record]]
molecule = "Cc1cc(C)nc(SCc2ccc3nonc3c2)n1"
readout_kind = "viability increase"
reported_value = -0.41

[[record]]
molecule = "Cc1cc2nc(-c3ccco3)cc(C(F)(F)F)n2n1"
readout_kind = "viability increase"
reported_value = 1.14

[[record]]
molecule = "O=C(NCC1COc2ccccc2O1)C1CCCN(S(=O)(=O)c2cccc3cccnc23)C1 (configuration not stated)"
readout_kind = "viability increase"
reported_value = 0.43

[[record]]
molecule = "COCCN1C(=O)c2oc3ccccc3c(=O)c2C1c1ccc(OC)c(OC)c1 (configuration not stated)"
readout_kind = "viability increase"
reported_value = -1.75

[[record]]
molecule = "CN1C(=O)C(O)(CC(=O)c2ccc(F)cc2)c2cc(Br)ccc21 (configuration not stated)"
readout_kind = "viability increase"
reported_value = -6.12

[[record]]
molecule = "COc1ccc(NC(=O)c2cnn3c(C(F)(F)F)cc(-c4ccco4)nc23)cc1OC"
readout_kind = "viability increase"
reported_value = -0.73

[[record]]
molecule = "COc1ccccc1N(CC(O)CN1C(=O)NC(C)(C)C1=O)S(=O)(=O)c1ccc(C)cc1 (configuration not stated)"
readout_kind = "viability increase"
reported_value = -0.66

[[record]]
molecule = "CC(=O)NC(CCS(C)(=O)=O)C(=O)Nc1cccc(C)c1 (configuration not stated)"
readout_kind = "viability increase"
reported_value = 0.75

[[record]]
molecule = "CC1(C)CC(=O)CC(C2(O)C(=O)N(Cc3ccccc3)c3ccccc32)O1 (configuration not stated)"
readout_kind = "viability increase"
reported_value = -5.63

[[record]]
molecule = "CCOc1ccccc1N1Cc2cc(C)c(C)cc2C1"
readout_kind = "viability increase"
reported_value = -2.58

[[record]]
molecule = "Cc1cccnc1-n1c(CCN2C(=O)c3ccccc3C2=O)nc2ccccc2c1=O"
readout_kind = "viability increase"
reported_value = -2.01

[[record]]
molecule = "COc1cccc(NC(=O)C2CCCN(S(=O)(=O)c3cccc4cccnc34)C2)c1 (configuration not stated)"
readout_kind = "viability increase"
reported_value = -1.5

[[record]]
molecule = "COC(=O)C1(C#N)C(c2ccccc2)C1(C(=O)OC)C(=O)OC (configuration not stated)"
readout_kind = "viability increase"
reported_value = -1.92

[[record]]
molecule = "O=c1c2ccccc2nc2c3ccccc3ncn12"
readout_kind = "viability increase"
reported_value = -0.34

[[record]]
molecule = "COc1ccc(CCNC(=O)C2(C)CCC(=O)N2Cc2ccc3c(c2)OCO3)cc1OC (configuration not stated)"
readout_kind = "viability increase"
reported_value = 0.26

[[record]]
molecule = "CCOC(=O)C1CCN(S(=O)(=O)c2cc(Br)cc3c2N(C(C)=O)C(C)C3)CC1 (configuration not stated)"
readout_kind = "viability increase"
reported_value = 0.29

[[record]]
molecule = "O=C(NCCc1csc(-c2ccccc2)n1)c1cccs1"
readout_kind = "viability increase"
reported_value = 2.21

[[record]]
molecule = "Nc1nc(NC(=O)c2ccco2)nn1-c1ccccc1"
readout_kind = "viability increase"
reported_value = -2.61

[[record]]
molecule = "NC(=O)C1(N2CCCCC2)CCN(C(=O)CCCn2c(=O)[nH]c3ccsc3c2=O)CC1"
readout_kind = "viability increase"
reported_value = -1.61

[[record]]
molecule = "CCc1ccc(-n2c(O)cnc2Nc2nc(C)cc(C)n2)cc1"
readout_kind = "viability increase"
reported_value = 1.61

[[record]]
molecule = "COc1cc2c(cc1OC)CN(C(=O)CSc1nnc3scc(-c4ccccc4)n13)CC2"
readout_kind = "viability increase"
reported_value = -3.13

[[record]]
molecule = "O=C(CCNS(=O)(=O)c1cccs1)Nc1ccccc1F"
readout_kind = "viability increase"
reported_value = -0.31

[[record]]
molecule = "CCCSc1nc2c(cnn2-c2ccc(C)cc2)c(=O)[nH]1"
readout_kind = "viability increase"
reported_value = -8.01

[[record]]
molecule = "NC(=O)C1CCN(CCCNC2CC(=O)N(Cc3ccc(N4CCCC4=O)cc3)C2=O)CC1 (configuration not stated)"
readout_kind = "viability increase"
reported_value = -0.01

[[record]]
molecule = "CC1=C(C(N)=O)C(c2cccc(O)c2)n2nc(CCCO)nc2N1 (configuration not stated)"
readout_kind = "viability increase"
reported_value = -1.07

[[record]]
molecule = "Cc1nc(=O)c(-c2ccccc2)c(C)n1CC1CCCO1 (configuration not stated)"
readout_kind = "viability increase"
reported_value = -2.44

[[record]]
molecule = "Cc1ccc(OCCN2CCCCCC2)c(C)c1"
readout_kind = "viability increase"
reported_value = -3.81

[[record]]
molecule = "O=c1oc2c3c4c(cc2s1)CCCN4CCC3"
readout_kind = "viability increase"
reported_value = -3.91

[[record]]
molecule = "COc1cccc(NC(=O)Cn2cc3c(n2)CCCCC3)c1"
readout_kind = "viability increase"
reported_value = 0.07

[[record]]
molecule = "Cn1c(=O)oc2cc(S(=O)(=O)N3CCCC(C(=O)NCC4COc5ccccc5O4)C3)ccc21 (configuration not stated)"
readout_kind = "viability increase"
reported_value = 3.09


Reference for the values: PubChem BioAssay
